Biological target: APN (Leucin aminopeptidase, microsomal, EC 3.4.11.2) (Sus scrofa)
Construct: purchased Sigma; host or cells: pig kidney (tissue-derived)
Sequence (P15145 1-963): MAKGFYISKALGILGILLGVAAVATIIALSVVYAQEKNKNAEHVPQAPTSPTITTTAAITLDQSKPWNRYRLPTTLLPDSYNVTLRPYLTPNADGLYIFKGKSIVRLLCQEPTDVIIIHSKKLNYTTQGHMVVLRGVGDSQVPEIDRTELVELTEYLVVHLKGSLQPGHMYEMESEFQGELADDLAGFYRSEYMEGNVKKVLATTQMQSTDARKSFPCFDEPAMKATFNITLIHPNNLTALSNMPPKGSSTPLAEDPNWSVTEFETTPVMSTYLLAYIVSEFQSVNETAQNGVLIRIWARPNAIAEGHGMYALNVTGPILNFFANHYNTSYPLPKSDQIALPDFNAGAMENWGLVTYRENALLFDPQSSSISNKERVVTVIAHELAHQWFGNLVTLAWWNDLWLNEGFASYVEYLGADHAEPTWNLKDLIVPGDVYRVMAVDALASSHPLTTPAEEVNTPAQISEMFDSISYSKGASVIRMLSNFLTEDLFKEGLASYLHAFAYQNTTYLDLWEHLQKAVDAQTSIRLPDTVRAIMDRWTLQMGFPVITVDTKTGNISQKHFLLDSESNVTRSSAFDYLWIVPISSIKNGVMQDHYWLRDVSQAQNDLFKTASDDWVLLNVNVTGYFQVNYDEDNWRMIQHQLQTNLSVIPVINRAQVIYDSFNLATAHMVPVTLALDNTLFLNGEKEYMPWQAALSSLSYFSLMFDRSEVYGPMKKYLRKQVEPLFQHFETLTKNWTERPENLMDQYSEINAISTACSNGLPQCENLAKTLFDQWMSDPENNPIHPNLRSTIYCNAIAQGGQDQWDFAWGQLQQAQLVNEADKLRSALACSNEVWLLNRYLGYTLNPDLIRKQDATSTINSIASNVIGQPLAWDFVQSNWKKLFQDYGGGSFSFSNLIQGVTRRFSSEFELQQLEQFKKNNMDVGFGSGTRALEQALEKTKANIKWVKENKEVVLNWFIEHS
Assay: IC50 determination against APN after reduction of the prodrugs with DTT
Format: biochemical
Settings: after release (reduction with DTT) of the inhibitors from the prodrugs; pig kidney enzyme, substrate Leu-AMC, pH 7.2, 30° C.; read-out: APN (IC 50 [M])
experimentalEndpoint: IC50 (M)

INSERT INTO assay_data (substancesmiles, valueunit, measurement) VALUES
  ('CCCCC[C@H](CC(=O)NO)C(=O)N[C@H](C(=O)N1CCC[C@H]1CO)C(C)C', 'M', '3.02e-07');

###

Target: Dipeptidyl peptidase IV (EC 3.4.14.5.) (Sus scrofa, UniProt P22411)
Construct: purchased Sigma; host or cells: pig kidney (tissue-derived)
Sequence (P22411 whole entry): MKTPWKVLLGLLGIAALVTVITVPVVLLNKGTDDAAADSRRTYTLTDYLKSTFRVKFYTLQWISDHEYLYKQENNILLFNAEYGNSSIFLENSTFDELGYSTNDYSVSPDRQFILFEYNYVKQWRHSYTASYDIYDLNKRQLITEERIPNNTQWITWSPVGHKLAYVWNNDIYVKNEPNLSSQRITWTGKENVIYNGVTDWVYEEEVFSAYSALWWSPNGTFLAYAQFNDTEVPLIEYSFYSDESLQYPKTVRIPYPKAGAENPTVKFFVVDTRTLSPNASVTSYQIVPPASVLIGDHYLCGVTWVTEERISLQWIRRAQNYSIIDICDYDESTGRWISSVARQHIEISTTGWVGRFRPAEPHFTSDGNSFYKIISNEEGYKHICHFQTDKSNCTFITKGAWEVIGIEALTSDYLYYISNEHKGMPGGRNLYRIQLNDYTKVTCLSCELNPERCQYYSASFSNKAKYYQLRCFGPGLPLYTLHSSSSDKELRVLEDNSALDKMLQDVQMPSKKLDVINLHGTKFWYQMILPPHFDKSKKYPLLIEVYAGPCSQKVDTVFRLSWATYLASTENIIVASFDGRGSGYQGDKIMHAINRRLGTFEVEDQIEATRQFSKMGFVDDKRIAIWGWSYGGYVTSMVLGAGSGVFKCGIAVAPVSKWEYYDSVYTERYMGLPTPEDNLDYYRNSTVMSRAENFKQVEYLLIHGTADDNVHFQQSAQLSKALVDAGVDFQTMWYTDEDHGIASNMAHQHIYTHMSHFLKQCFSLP
Assay: IC50 determination against DP IV after reduction of the prodrugs with DTT
Format: biochemical
Conditions: after release (reduction with DTT) of the inhibitors from the prodrugs; pig kidney enzyme, substrate Ala-Pro-AMC, pH 7.6, 30° C.; read-out: DP IV (IC 50 [M])
experimentalEndpoint: IC50 (M)

INSERT INTO measurements (compound, experimentalendpoint, measurement) VALUES
  ('NC(CCCCNC(=O)OCc1ccc([N+](=O)[O-])cc1)C(=O)N1CCSC1 (stereo not shown) [Lys[Z(NO2)]-thiazolidide, H-Lys[Z(NO2)]-thiazolidide]', 'IC50', '4.34e-07');
